target: 5-HT2A receptor (Homo sapiens (Human)); experiment: Competitive 5-HT2A receptor binding assay (3H-Ketanserin, CHO-5-HT2A membrane); conditions: CHO-5-HT2A membrane, 3H-Ketanserin; read-out: 5-HT2A (Ki value)
pKi: −log10 of the molar value.

Smiles Data | pKi
CC(C)COc1ccc(CN2Cc3ccc(F)cc3CN(C3CCN(C)CC3)C2=O)cc1 | 9.37
CC(C)COc1ccc(CN2Cc3ccc(F)cc3CN([C@H]3CCN(C)C[C@@H]3F)C2=O)cc1 | 11.70
CC(C)CNc1ccc(CN2Cc3ccc(F)cc3CN(C3CCN(C)CC3)C2=O)cc1 | 8.57
CC(C)COc1ccc(CN2Cc3ccccc3CN(C3CCN(C)CC3)C2=O)cc1 | 8.76
CC(C)Cc1ccc(CN2Cc3ccc(F)cc3CN(C3CCN(C)CC3)C2=O)cc1 | 8.28
COc1ccc(CN2Cc3ccc(F)cc3CN(C3CCN(C)CC3)C2=O)cc1 | 8.52
CN1CCC(N2Cc3ccc(F)cc3CN(Cc3ccc(OC4CC4)cc3)C2=O)CC1 | 9.82
CN1CCC(N2Cc3cc(F)ccc3CN(Cc3ccc(CC(C)(C)O)cc3)C2=O)CC1 | 7.70
CC(C)Oc1ccc(CN2Cc3ccc(F)cc3CN(C3CCN(C)CC3)C2=O)cc1F | 9.02

###

test: MPTP+APO-induced climbing behavior in male mice (DA motor deterioration model); type: in vivo; details: mouse, in vivo, ip; male mice, intraperitoneal; read-out: DA side effects (climbing motor deterioration) ED50
Assay Metric: ED50

Compound | Meas Value
CC(C)COc1ccc(CNC(=O)N(Cc2ccc(F)cc2)C2CCN(C)CC2)cc1 [Pimavanserin, reference compound] | > 30 mg/kg

###

molecular target: 5-HT2A receptor (Homo sapiens (Human), UniProt P28223); test: Competitive 5-HT2A receptor binding assay (3H-Ketanserin, CHO-5-HT2A membrane); conditions: CHO-5-HT2A membrane, 3H-Ketanserin; read-out: 5-HT2A (Ki value)
Sequence (P28223 whole entry): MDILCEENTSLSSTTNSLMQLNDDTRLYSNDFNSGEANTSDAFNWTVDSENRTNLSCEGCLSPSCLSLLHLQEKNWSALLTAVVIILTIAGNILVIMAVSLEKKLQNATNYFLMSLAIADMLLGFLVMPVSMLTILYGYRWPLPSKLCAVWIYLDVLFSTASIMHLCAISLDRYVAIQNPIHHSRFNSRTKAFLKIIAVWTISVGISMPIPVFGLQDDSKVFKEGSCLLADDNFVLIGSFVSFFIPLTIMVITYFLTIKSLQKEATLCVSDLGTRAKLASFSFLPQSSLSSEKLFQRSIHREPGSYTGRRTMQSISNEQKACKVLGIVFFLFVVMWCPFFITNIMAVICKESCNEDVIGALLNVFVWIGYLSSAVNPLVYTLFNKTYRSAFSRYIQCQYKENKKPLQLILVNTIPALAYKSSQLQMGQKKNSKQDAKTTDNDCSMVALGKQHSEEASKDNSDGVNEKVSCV
pKi: −log10 of the molar value.
Classify by measured pKi: rule met if it is equal to or exceeds 8, rule not met if it is smaller.

Smiles Data | Answer Label
CC(C)COc1ccc(CN2Cc3ccc(F)cc3CN([C@H]3CCN(C)C[C@H]3F)C2=O)cc1 | rule met
CC(C)COc1ccc(CN2Cc3ccc(F)cc3CC3(CCN(C)CC3)C2=O)cc1 | rule not met
CC(C)COc1ccc(CN2Cc3cc(Cl)ccc3CN(C3CCN(C)CC3)C2=O)cc1 | rule met
CN1CCC(N2Cc3cc(F)ccc3CN(Cc3ccc(OC4CC4)cc3)C2=O)CC1 | rule met
CC(C)COc1ccc(CN2Cc3cc(F)ccc3CN(C3CCN(C)CC3)C2=O)cc1 | rule met

###

biological target: UniProt P28223; assay: Competitive 5-HT2A receptor binding assay (3H-Ketanserin, CHO-5-HT2A membrane); details: ratio of 5-HT2C Ki to 5-HT2A Ki
Please assign -1 whenever 2C/2A is at or above 9, and 1 whenever it is below.

Smiles Data | Answer Label
CC(C)Cc1ccc(CN2Cc3ccc(F)cc3CN(C3CCN(C)CC3)C2=O)cc1 | 1
CN1CCC(N2Cc3cc(F)ccc3CN(Cc3ccc(OC4CC4)cc3)C2=O)CC1 | 1
COc1ccc(CN2Cc3ccc(F)cc3CN(C3CCN(C)CC3)C2=O)cc1 | 1
CC(C)COc1ccc(CN2Cc3ccc(F)cc3CN([C@H]3CCN(C)C[C@@H]3F)C2=O)cc1 | -1
CN1CCC(N2Cc3cc(F)ccc3CN(Cc3ccc(CC(C)(C)O)cc3)C2=O)CC1 | 1
CC(C)Oc1ccc(CN2Cc3ccc(F)cc3CN(C3CCN(C)CC3)C2=O)cc1F | -1
CC(C)CNc1ccc(CN2Cc3ccc(F)cc3CN(C3CCN(C)CC3)C2=O)cc1 | -1
